target.entity: recombinant rat α1β3γ2 receptors (Rattus norvegicus, UniProt P18508+P62813)
Sequence (P62813 28-455, one chain of several): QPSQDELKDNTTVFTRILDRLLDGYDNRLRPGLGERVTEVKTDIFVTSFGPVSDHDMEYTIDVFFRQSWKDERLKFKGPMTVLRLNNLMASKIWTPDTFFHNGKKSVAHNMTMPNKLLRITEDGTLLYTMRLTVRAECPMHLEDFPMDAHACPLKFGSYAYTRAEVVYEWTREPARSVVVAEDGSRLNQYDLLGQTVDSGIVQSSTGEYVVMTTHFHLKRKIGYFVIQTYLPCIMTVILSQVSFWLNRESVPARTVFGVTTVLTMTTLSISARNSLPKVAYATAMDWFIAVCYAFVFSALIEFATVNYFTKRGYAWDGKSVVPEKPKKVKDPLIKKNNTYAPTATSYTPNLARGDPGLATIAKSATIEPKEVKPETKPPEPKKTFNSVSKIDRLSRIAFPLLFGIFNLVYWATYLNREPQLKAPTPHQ
experimental.protocol: Two-electrode voltage clamp of GABA-induced chloride currents in Xenopus oocytes
Assay type: cell-based
condition.context: 10 nM; α1β3γ2; ns = not significant
endpoint.label: efficacy (% GABA EC3)

>  <molecule>
CC(C)(C)OC(=O)c1ncn2c1[C@@H]1CCCN1C(=O)c1c(Br)cccc1-2 [Bretazenil]

>  <target.entity>
recombinant rat α1β3γ2 receptors (Rattus norvegicus, UniProt P18508+P62813)

>  <endpoint.label>
efficacy (% GABA EC3)

>  <reported.result>
126

$$$$
>  <molecule>
CCc1c(C(=O)OC)ncc2[nH]c3cc(OC)c(OC)cc3c12 [DMCM]

>  <target.entity>
recombinant rat α1β3γ2 receptors (Rattus norvegicus, UniProt P18508+P62813)

>  <endpoint.label>
efficacy (% GABA EC3)

>  <reported.result>
87

$$$$

* * *

target.entity: recombinant rat α1β3γ2 receptors (Rattus norvegicus, UniProt P18508+P62813)
experimental.protocol: Two-electrode voltage clamp of GABA-induced chloride currents in Xenopus oocytes
Assay type: cell-based
condition.context: 100 nM; α1β3γ2; ns = not significant

>  <compound>
CCOC(=O)c1ncn2c1CN(C)C(=O)c1cc(F)ccc1-2

>  <target.entity>
recombinant rat α1β3γ2 receptors (Rattus norvegicus, UniProt P18508+P62813)

>  <efficacy (% GABA EC3)>
ns

$$$$
>  <compound>
CNC(=O)c1cc2c(cn1)[nH]c1ccccc12 [FG7142, N-methyl-β-carboline-3-carboxamide]

>  <target.entity>
recombinant rat α1β3γ2 receptors (Rattus norvegicus, UniProt P18508+P62813)

>  <efficacy (% GABA EC3)>
ns

$$$$
>  <compound>
CCOC(=O)c1ncn2c1C1CCCN1C(=O)c1cc(OC)ccc1-2 (stereo not drawn)

>  <target.entity>
recombinant rat α1β3γ2 receptors (Rattus norvegicus, UniProt P18508+P62813)

>  <efficacy (% GABA EC3)>
ns

$$$$

* * *

target.entity: recombinant rat α6β3γ2 receptors (Rattus norvegicus, UniProt P18508+P30191)
Sequence (P30191 20-453): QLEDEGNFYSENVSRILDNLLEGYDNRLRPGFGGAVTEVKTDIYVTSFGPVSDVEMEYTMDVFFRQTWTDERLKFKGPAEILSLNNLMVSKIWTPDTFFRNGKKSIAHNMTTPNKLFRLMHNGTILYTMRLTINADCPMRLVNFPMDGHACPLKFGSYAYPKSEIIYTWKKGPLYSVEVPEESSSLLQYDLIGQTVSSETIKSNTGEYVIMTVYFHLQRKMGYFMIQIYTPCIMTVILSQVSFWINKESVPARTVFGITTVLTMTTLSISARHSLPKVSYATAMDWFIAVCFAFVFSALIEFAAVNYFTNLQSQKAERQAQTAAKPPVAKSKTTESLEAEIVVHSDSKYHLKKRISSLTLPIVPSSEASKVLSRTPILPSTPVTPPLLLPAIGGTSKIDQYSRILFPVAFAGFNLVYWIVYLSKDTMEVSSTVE
Sequence (P63079 26-473 partner): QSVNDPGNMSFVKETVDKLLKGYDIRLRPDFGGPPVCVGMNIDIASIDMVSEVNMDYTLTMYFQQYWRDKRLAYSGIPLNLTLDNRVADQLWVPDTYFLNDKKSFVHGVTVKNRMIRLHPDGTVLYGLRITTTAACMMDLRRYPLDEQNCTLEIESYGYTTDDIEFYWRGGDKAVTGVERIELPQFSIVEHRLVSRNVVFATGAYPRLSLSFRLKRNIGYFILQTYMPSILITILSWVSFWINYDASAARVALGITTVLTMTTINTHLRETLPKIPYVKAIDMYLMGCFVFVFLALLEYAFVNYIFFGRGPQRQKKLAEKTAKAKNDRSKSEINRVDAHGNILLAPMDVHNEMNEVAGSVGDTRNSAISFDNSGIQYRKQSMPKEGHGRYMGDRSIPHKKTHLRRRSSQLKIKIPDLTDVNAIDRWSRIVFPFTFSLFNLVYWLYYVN
Sequence (P18508 39-466): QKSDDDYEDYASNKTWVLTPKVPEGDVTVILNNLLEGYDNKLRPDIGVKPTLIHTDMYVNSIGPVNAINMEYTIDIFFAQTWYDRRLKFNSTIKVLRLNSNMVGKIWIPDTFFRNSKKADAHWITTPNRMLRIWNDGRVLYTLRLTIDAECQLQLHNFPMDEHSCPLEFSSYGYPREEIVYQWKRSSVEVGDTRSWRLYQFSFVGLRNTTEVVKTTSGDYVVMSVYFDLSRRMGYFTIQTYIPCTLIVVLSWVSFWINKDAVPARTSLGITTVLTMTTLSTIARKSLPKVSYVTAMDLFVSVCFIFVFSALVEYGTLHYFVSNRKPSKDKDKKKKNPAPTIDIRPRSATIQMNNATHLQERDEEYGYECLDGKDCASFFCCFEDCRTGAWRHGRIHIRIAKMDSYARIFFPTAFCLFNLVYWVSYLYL
experimental.protocol: Two-electrode voltage clamp of GABA-induced chloride currents in Xenopus oocytes
Format: cell-based
condition.context: 100 nM; α6β3γ2; ns = not significant

>  <compound>
CC(C)(C)OC(=O)c1ncn2c1[C@@H]1CCCN1C(=O)c1c(Br)cccc1-2 [Bretazenil]

>  <target.entity>
recombinant rat α6β3γ2 receptors (Rattus norvegicus, UniProt P18508+P30191)

>  <efficacy (% GABA EC3)>
ns

$$$$
>  <compound>
Cc1nnc2ccc(-c3cccc(C(F)(F)F)c3)nn12 [CL 218872]

>  <target.entity>
recombinant rat α6β3γ2 receptors (Rattus norvegicus, UniProt P18508+P30191)

>  <efficacy (% GABA EC3)>
ns

$$$$
>  <compound>
CNC(=O)c1cc2c(cn1)[nH]c1ccccc12 [FG7142, N-methyl-β-carboline-3-carboxamide]

>  <target.entity>
recombinant rat α6β3γ2 receptors (Rattus norvegicus, UniProt P18508+P30191)

>  <efficacy (% GABA EC3)>
ns

$$$$

* * *

target.entity: recombinant rat α2β3γ2F77I receptors (Rattus norvegicus, UniProt P18508+P23576, F115I)
Sequence (P23576 29-451, one chain of several): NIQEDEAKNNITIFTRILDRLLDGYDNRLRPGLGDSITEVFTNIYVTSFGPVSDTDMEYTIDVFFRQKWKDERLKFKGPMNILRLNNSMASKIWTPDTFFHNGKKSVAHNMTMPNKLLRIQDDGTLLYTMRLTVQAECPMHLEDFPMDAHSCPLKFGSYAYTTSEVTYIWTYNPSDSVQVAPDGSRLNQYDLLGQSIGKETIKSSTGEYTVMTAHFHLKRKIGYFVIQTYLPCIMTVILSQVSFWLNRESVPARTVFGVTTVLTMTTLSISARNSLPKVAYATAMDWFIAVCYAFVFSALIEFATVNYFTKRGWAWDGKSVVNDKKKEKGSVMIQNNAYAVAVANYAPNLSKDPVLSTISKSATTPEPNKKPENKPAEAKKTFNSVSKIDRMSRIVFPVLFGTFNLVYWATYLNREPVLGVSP
Sequence (P18508 39-466 F115I, one chain of several): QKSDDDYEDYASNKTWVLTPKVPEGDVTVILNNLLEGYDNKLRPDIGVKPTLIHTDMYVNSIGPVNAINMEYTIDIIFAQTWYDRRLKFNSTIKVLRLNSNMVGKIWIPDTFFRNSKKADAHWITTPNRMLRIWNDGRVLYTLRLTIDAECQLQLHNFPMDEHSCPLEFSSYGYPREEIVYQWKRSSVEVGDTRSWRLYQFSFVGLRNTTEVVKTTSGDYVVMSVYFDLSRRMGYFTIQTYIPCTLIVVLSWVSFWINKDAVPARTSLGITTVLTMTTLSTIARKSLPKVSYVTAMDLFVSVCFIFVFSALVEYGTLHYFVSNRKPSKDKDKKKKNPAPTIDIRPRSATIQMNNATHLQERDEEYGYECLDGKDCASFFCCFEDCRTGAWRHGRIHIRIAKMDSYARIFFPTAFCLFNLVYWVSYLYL
experimental.protocol: Two-electrode voltage clamp of GABA-induced chloride currents in Xenopus oocytes
Type: cell-based
condition.context: 1 μM; α2β3γ2F77I; ns = not significant

>  <compound>
CN1CCN(C(=O)OC2c3nccnc3C(=O)N2c2ccc(Cl)cn2)CC1 (stereo not drawn)

>  <target.entity>
recombinant rat α2β3γ2F77I receptors (Rattus norvegicus, UniProt P18508+P23576, F115I)

>  <efficacy (% GABA EC3)>
ns

$$$$
>  <compound>
CNC(=O)c1cc2c(cn1)[nH]c1ccccc12 [FG7142, N-methyl-β-carboline-3-carboxamide]

>  <target.entity>
recombinant rat α2β3γ2F77I receptors (Rattus norvegicus, UniProt P18508+P23576, F115I)

>  <efficacy (% GABA EC3)>
ns

$$$$
>  <compound>
CCOC(=O)c1ncn2c1C1CCCN1C(=O)c1cc(OC)ccc1-2 (stereo not drawn)

>  <target.entity>
recombinant rat α2β3γ2F77I receptors (Rattus norvegicus, UniProt P18508+P23576, F115I)

>  <efficacy (% GABA EC3)>
ns

$$$$

* * *

target.entity: recombinant rat α5β3γ2 receptors (Rattus norvegicus, UniProt P18508+P19969)
Sequence (P19969 32-464 limits assumed, one chain of several): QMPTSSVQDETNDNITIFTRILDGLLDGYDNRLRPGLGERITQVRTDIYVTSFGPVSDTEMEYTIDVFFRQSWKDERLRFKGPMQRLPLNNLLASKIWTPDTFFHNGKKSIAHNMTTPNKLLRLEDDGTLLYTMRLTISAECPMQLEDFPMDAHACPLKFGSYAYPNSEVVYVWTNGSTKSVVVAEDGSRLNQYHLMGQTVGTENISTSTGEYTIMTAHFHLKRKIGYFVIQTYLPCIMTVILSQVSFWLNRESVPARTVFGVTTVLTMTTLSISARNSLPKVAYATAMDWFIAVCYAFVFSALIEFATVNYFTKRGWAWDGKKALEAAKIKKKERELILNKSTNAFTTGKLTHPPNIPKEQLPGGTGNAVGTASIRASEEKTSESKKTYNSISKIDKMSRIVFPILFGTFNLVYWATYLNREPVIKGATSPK
experimental.protocol: Two-electrode voltage clamp of GABA-induced chloride currents in Xenopus oocytes
Assay type: cell-based
condition.context: 100 nM; α5β3γ2; ns = not significant

>  <molecule>
Cc1ccc(-c2nc3ccc(C)cn3c2CC(=O)N(C)C)cc1

>  <efficacy (% GABA EC3)>
ns

$$$$
>  <molecule>
CNC(=O)c1cc2c(cn1)[nH]c1ccccc12 [FG7142, N-methyl-β-carboline-3-carboxamide]

>  <efficacy (% GABA EC3)>
ns

$$$$
>  <molecule>
CCOC(=O)c1ncn2c1CN(C)C(=O)c1cc(F)ccc1-2

>  <efficacy (% GABA EC3)>
ns

$$$$
>  <molecule>
Cc1nnc2ccc(-c3cccc(C(F)(F)F)c3)nn12

>  <efficacy (% GABA EC3)>
ns

$$$$
>  <molecule>
COCc1c(C(=O)OC(C)C)ncc2[nH]c3ccc(OCc4ccccc4)cc3c12

>  <efficacy (% GABA EC3)>
ns

$$$$

* * *

target.entity: recombinant rat α1β3γ2 receptors (Rattus norvegicus, UniProt P18508+P62813)
experimental.protocol: Two-electrode voltage clamp of GABA-induced chloride currents in Xenopus oocytes
Assay type: cell-based
condition.context: 1 μM; α1β3γ2; ns = not significant

>  <molecule>
CCc1c(C(=O)OC)ncc2[nH]c3cc(OC)c(OC)cc3c12 [DMCM]

>  <efficacy (% GABA EC3)>
ns

$$$$
>  <molecule>
CCOC(=O)c1ncn2c1C1CCCN1C(=O)c1cc(OC)ccc1-2 [L-655,708]

>  <efficacy (% GABA EC3)>
ns

$$$$
>  <molecule>
CCOC(=O)c1ncn2c1CN(C)C(=O)c1cc(F)ccc1-2 [Ro15–1788]

>  <efficacy (% GABA EC3)>
ns

$$$$

* * *

target.entity: recombinant rat α3β3γ2F77I receptors (Rattus norvegicus, UniProt P18508+P20236, F115I)
Sequence (P20236 29-493): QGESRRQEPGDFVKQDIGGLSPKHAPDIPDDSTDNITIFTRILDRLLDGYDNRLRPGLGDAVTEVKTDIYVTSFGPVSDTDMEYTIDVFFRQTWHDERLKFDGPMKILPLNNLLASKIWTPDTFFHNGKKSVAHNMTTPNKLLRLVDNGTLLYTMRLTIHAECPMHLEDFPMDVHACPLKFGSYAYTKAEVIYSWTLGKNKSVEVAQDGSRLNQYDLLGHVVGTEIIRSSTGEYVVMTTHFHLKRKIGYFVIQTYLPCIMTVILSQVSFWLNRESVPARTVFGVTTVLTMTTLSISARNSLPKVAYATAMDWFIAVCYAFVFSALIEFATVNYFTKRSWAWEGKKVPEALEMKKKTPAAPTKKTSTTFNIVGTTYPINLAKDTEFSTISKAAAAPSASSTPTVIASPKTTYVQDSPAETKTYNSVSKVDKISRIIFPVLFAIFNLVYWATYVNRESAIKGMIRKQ
Sequence (P63079 26-473 partner): as the sequence (P63079 26-473 partner) above
Sequence (P18508 39-466 F115I): as the sequence (P18508 39-466) above, with F77I counted along it
experimental.protocol: Two-electrode voltage clamp of GABA-induced chloride currents in Xenopus oocytes
Type: cell-based
condition.context: 1 μM; α3β3γ2F77I; ns = not significant
endpoint.label: efficacy (% GABA EC3)

>  <molecule>
Cc1ccc(-c2nc3ccc(C)cn3c2CC(=O)N(C)C)cc1

>  <reported.result>
ns

$$$$
>  <molecule>
CCOC(=O)c1ncn2c1C1CCCN1C(=O)c1cc(OC)ccc1-2 (stereo not drawn)

>  <reported.result>
ns

$$$$
>  <molecule>
Cc1nnc2ccc(-c3cccc(C(F)(F)F)c3)nn12

>  <reported.result>
ns

$$$$

* * *

target.entity: recombinant rat α4β3γ2 receptors (Rattus norvegicus, UniProt P18508+P28471)
Sequence (P28471 36-552): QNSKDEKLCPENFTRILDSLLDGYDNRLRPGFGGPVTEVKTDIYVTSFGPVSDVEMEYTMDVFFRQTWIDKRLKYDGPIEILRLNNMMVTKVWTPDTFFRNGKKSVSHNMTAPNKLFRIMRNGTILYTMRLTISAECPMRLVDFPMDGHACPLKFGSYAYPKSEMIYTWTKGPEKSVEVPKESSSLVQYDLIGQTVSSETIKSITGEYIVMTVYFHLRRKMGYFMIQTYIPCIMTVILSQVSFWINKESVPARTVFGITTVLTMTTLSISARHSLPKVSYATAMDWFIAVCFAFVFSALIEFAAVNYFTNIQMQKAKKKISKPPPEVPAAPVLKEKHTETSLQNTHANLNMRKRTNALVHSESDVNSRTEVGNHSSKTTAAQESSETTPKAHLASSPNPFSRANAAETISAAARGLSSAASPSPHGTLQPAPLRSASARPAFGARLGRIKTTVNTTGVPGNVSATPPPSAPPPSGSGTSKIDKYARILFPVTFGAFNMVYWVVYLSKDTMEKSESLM
Sequence (P63079 26-473 partner): as the sequence (P63079 26-473 partner) above
Sequence (P18508 39-466): as the sequence (P18508 39-466) above
experimental.protocol: Two-electrode voltage clamp of GABA-induced chloride currents in Xenopus oocytes
Type: cell-based
condition.context: 100 nM; α4β3γ2; ns = not significant

>  <compound>
CNC(=O)c1cc2c(cn1)[nH]c1ccccc12 [FG7142, N-methyl-β-carboline-3-carboxamide]

>  <efficacy (% GABA EC3)>
ns

$$$$
>  <compound>
Cc1nnc2ccc(-c3cccc(C(F)(F)F)c3)nn12

>  <efficacy (% GABA EC3)>
ns

$$$$
>  <compound>
Cc1ccc(-c2nc3ccc(C)cn3c2CC(=O)N(C)C)cc1

>  <efficacy (% GABA EC3)>
ns

$$$$

* * *

target.entity: recombinant rat α5β3γ2 receptors (Rattus norvegicus, UniProt P18508+P19969)
experimental.protocol: Two-electrode voltage clamp of GABA-induced chloride currents in Xenopus oocytes
Type: cell-based
condition.context: 1 μM; α5β3γ2; ns = not significant

>  <compound>
Cc1ccc(-c2nc3ccc(C)cn3c2CC(=O)N(C)C)cc1

>  <target.entity>
recombinant rat α5β3γ2 receptors (Rattus norvegicus, UniProt P18508+P19969)

>  <efficacy (% GABA EC3)>
ns

$$$$
>  <compound>
CCOC(=O)c1ncn2c1CN(C)C(=O)c1cc(F)ccc1-2

>  <target.entity>
recombinant rat α5β3γ2 receptors (Rattus norvegicus, UniProt P18508+P19969)

>  <efficacy (% GABA EC3)>
ns

$$$$
>  <compound>
CNC(=O)c1cc2c(cn1)[nH]c1ccccc12 [FG7142, N-methyl-β-carboline-3-carboxamide]

>  <target.entity>
recombinant rat α5β3γ2 receptors (Rattus norvegicus, UniProt P18508+P19969)

>  <efficacy (% GABA EC3)>
ns

$$$$
